# MEASUREMENT_TARGET: THRβ LBD (His-GST-dLBT-THRβLBD) (Homo sapiens, UniProt P10828)
# Sequence (P10828 217-461 limits assumed): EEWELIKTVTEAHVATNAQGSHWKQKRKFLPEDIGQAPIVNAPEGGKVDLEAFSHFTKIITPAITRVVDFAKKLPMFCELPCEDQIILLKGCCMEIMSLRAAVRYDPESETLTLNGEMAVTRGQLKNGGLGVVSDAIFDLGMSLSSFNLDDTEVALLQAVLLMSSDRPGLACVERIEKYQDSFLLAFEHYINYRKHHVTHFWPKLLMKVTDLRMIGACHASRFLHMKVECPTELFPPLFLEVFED
# TEST_NAME: THR-FRET (time-resolved fluorescence resonance energy transfer) agonist activity assay, THRβ
# CONDITION_NOTES: 24 h at room temperature
RECORDED_ENDPOINT: EC50

COMPOUND	RESULT
N#Cc1nn(-c2cc(Cl)c(Cn3ccc(=O)c4ccccc43)c(Cl)c2)c(=O)[nH]c1=O [Compound 31]	100 to 1000 nM
Cc1nn(-c2cc(Br)c(Cn3ccc(=O)c4c(C)cccc43)c(Br)c2)c(=O)[nH]c1=O [Compound 45]	< 50 nM
O=c1[nH]c(=O)n(-c2cc(Br)c(Cn3ccc(=O)c4ccccc43)c(Br)c2)nc1C(F)F [Compound 29]	< 50 nM
O=c1ccn(Cc2c(Cl)cc(OCc3nnn[nH]3)cc2Cl)c2ccccc12 [Compound 59]	100 to 1000 nM
Cc1cccc2c1c(=O)ccn2Cc1c(Cl)cc(-n2nc(C(F)F)c(=O)[nH]c2=O)cc1Cl [Compound 47]	< 50 nM
O=c1[nH]c(=O)n(-c2cc(Cl)c(Cn3ccc(=O)c4ccccc43)c(Cl)c2)nc1CF [Compound 37]	50 to 100 nM
Cc1nn(-c2cc(Cl)c(Cn3ccc(=O)c4c(C)cccc43)c(Br)c2)c(=O)[nH]c1=O [Compound 46]	< 50 nM
[2H]C(F)(F)c1nn(-c2cc(Br)c(Cn3ccc(=O)c4ccccc43)c(Br)c2)c(=O)[nH]c1=O [Compound 71]	< 50 nM

====

Quick reference for pEC50 among some compounds
# MEASUREMENT_TARGET: THRα LBD (His-GST-dLBT-THRα LBD) (Homo sapiens, UniProt P10827)
# Construct: made in house; host or cells: E. coli BL21 (DE3)
# Sequence (P10827 163-407 isoform P10827-2): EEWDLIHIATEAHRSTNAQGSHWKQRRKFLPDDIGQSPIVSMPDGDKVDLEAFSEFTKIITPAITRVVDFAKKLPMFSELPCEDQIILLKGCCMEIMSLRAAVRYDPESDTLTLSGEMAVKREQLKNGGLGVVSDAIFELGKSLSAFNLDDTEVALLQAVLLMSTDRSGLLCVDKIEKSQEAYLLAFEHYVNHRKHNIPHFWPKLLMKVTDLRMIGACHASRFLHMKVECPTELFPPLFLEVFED
# TEST_NAME: THR-FRET (time-resolved fluorescence resonance energy transfer) agonist activity assay, THRα
# Assay type: biochemical
# CONDITION_NOTES: 24 h at room temperature
# Protocol: Experimental Example 1: Detection of Agonist Activities of Compounds Against THRα/β Based on Time-Resolved Fluorescence Resonance Energy Transfer (THR-FRET) 1. Construction of THRα/β Overexpression Vectors […] The final concentrations of all components were calculated based on a system with a final volume of 20 µL per well. […] The plate was read using an MD i3x multi-mode microplate reader with the excitation and emission wavelengths of 340 nm and 665 nm, respectively. […]
pEC50: −log10 of the molar value.

COMPOUND	pEC50
Cc1nn(-c2cc(Cl)c(Cn3ccc(=O)c4c(C)cccc43)c(Cl)c2)c(=O)[nH]c1=O [Compound 44]	6.00 to 7.00
O=c1[nH]nc(CNc2cc(Cl)c(Cn3ccc(=O)c4ccccc43)c(Cl)c2)o1 [Compound 63]	5.00 to 6.00
Cc1nn(-c2cc(Cl)c(Cn3ccc(=O)c4c(C)cccc43)c(Br)c2)c(=O)[nH]c1=O [Compound 46]	7.00 to 7.30
Cc1cccc2c1c(=O)ccn2Cc1c(Cl)cc(-n2nc(C(F)F)c(=O)[nH]c2=O)cc1Cl [Compound 47]	6.00 to 7.00
O=c1ccn(Cc2c(Cl)cc(OCc3nnn[nH]3)cc2Cl)c2ccccc12 [Compound 59]	6.00 to 7.00
C#Cc1nn(-c2cc(Cl)c(Cn3ccc(=O)c4ccccc43)c(Cl)c2)c(=O)[nH]c1=O [Compound 40]	6.00 to 7.00
O=c1cnn(-c2cc(Br)c(Cn3ccc(=O)c4ccccc43)c(Br)c2)c(=O)[nH]1 [Compound 2]	6.00 to 7.00
Cc1cccc2c1c(=O)ccn2Cc1c(Cl)cc(-n2ncc(=O)[nH]c2=O)cc1Br [Compound 17]	6.00 to 7.00
Nc1nn(-c2cc(Cl)c(Cn3ccc(=O)c4ccccc43)c(Cl)c2)c(=O)[nH]c1=O [Compound 32]	5.00 to 6.00

====

Quick reference for pEC50 among some compounds
# MEASUREMENT_TARGET: THRα LBD (His-GST-dLBT-THRα LBD) (Homo sapiens, UniProt P10827)
# Construct: made in house; host or cells: E. coli BL21 (DE3)
# TEST_NAME: THR-FRET (time-resolved fluorescence resonance energy transfer) agonist activity assay, THRα
# Type: biochemical
# CONDITION_NOTES: 24 h at room temperature
pEC50: −log10 of the molar value.
RECORDED_ENDPOINT: pEC50

COMPOUND	MEASUREMENT_TARGET	RESULT
O=c1[nH]c(=O)n(-c2cc(Cl)c(Cn3ccc(=O)c4ccccc43)c(Br)c2)nc1C(F)F	THRα LBD (His-GST-dLBT-THRα LBD) (Homo sapiens, UniProt P10827)	6.00 to 7.00
[2H]C(c1c(Br)cc(-n2nc(C(F)F)c(=O)[nH]c2=O)cc1Br)n1ccc(=O)c2ccccc21 (stereo not shown)	THRα LBD (His-GST-dLBT-THRα LBD) (Homo sapiens, UniProt P10827)	7.00 to 7.30
O=c1cnn(-c2cc(Cl)c(Cn3ccc(=O)c4ccccc43)c(Br)c2)c(=O)[nH]1	THRα LBD (His-GST-dLBT-THRα LBD) (Homo sapiens, UniProt P10827)	6.00 to 7.00
Cc1nn(-c2cc(Br)c(Cn3ccc(=O)c4ccccc43)c(Br)c2)c(=O)[nH]c1=O	THRα LBD (His-GST-dLBT-THRα LBD) (Homo sapiens, UniProt P10827)	6.00 to 7.00
